Structures can show the parent of a compound that is named as a salt.
For adenosine A2A receptor (Homo sapiens), measured pKi is reported for the entries below.
pKi (log units): -log10 of the concentration in mol/L.

Solved cases (5 shown):
CS(=O)(=O)N[C@H]1C[C@@H](n2cnc3c(N)nc(Cl)nc32)[C@H](O)[C@@H]1O [Example 1, Trifluoroacetate]: 6.24
CC(=O)N[C@H]1C[C@@H](n2cnc3c(NCC(c4ccccc4)c4ccccc4)nc(C(=O)NCCNC(=O)NC4CCN(c5ccccn5)CC4)nc32)[C@H](O)[C@@H]1O [Example 42, trifluoroacetate]: 8.70
CCC(=O)N[C@H]1C[C@@H](n2cnc3c(NCCC(c4ccccc4)c4ccccc4)nc(NCCc4cn(CC)cn4)nc32)[C@H](O)[C@@H]1O [Example 61, trifluoroacetate]: 8.05
CCC(=O)N[C@H]1C[C@@H](n2cnc3c(N)nc(NCCc4ccccc4)nc32)[C@H](O)[C@@H]1O [Example 2]: 7.74
CCC(=O)N[C@H]1C[C@@H](n2cnc3c(NCC(c4ccccc4)c4ccccc4)nc(N4CC[C@@H](NC(=O)N[C@@H]5CCNC5)C4)nc32)[C@H](O)[C@@H]1O [Example 39]: 8.52

Report pKi for CCC(=O)N[C@H]1C[C@@H](n2cnc3c(NCC(c4ccccc4)c4ccccc4)nc(Cl)nc32)[C@H](O)[C@@H]1O [Example 4] tested on adenosine A2A receptor (Homo sapiens). 7.24

Recall the recorded pKi for CCC(=O)N[C@H]1C[C@@H](n2cnc3c(NCc4cccc5ccccc45)nc(N4CC[C@@H](NC(=O)N[C@@H]5CCNC5)C4)nc32)[C@H](O)[C@@H]1O [Example 55, Trifluoroacetate] with adenosine A2A receptor (Homo sapiens) and state it. 8.40
